tested on: Poly/Mono-ADP Ribose in U2OS cells; test: PAR in cell western assay (parylation) in U2OS cells; type: cell-based; conditions: Homo sapiens; U2OS cells, 6 hrs, 2 mM H2O2; read-out: Parylation (U2OS)
Measured IC50 values are reported for all entries that follow.

COMPOUND | IC50
Cc1sc(CN2CCCC2c2nnc3n2CCCCC3)nc1C12CC(C(=O)NCCOCCOCCOCCOCCNCC(=O)N3CCN(C(=O)c4cc(Cc5n[nH]c(=O)c6ccccc56)ccc4F)CC3)(C1)C2 (centres unmarked) | 10 to 100 nM
O=C(N[C@@H](C(=O)N1CCN(CC2CCN(CC(=O)N3CCN(C(=O)c4cc(Cc5n[nH]c(=O)c6ccccc56)ccc4F)CC3)CC2)CC1)C1CCCCC1)c1cccc([C@H]2CCCN(C(=O)CNCc3ccc(F)cc3F)C2)c1 | 10 to 100 nM
CCc1cccc(-c2cc(F)c(C(=O)N3CCC(CN4CCN(CC(=O)N5CCN(C(=O)c6cc(Cc7n[nH]c(=O)c8ccccc78)ccc6F)CC5)CC4)CC3)c(F)c2)c1 | 10 to 100 nM
CCOc1cc(OC)ccc1CNCC(=O)N1CCCC(c2cccc(C(=O)N[C@@H](C(=O)N3CCN(CC4CCN(CC(=O)N5CCN(C(=O)c6cc(Cc7n[nH]c(=O)c8ccccc78)ccc6F)CC5)CC4)CC3)C3CCCCC3)c2)C1 (some centres unmarked) | 100 to 1000 nM
CCOc1cc(OC)ccc1CNCC(=O)N1CCCC(c2cccc(C(=O)N[C@@H](C(=O)NCc3cn(CCNCC(=O)N4CCN(C(=O)c5cc(Cc6n[nH]c(=O)c7ccccc67)ccc5F)CC4)nn3)C3CCCCC3)c2)C1 (some centres unmarked) | < 10 nM

###

tested on: A2780 cells; experiment: Cell proliferation assay (A2780); assay type: cell-based; details: Homo sapiens, 168 h, 7 days
pIC50: −log10 of the molar value.

COMPOUND | pIC50
CCc1cccc(-c2cnc(C(=O)N3CCC(CN4CCN(CC(=O)N5CCN(C(=O)c6cc(Cc7n[nH]c(=O)c8ccccc78)ccc6F)CC5)CC4)CC3)c(NC(=O)CNCc3cccc(C)c3)c2)c1 | 6.00 to 7.00
O=C(CN1CCN(CC2CCN(C(=O)c3c(F)cc(-c4ccncn4)cc3F)CC2)CC1)N1CCN(C(=O)c2cc(Cc3n[nH]c(=O)c4ccccc34)ccc2F)CC1 | 6.00 to 7.00
CC(C)(C)OC(=O)Nc1cc(-c2cccc(C3COC3)c2)cnc1C(=O)NCCOCCNCC(=O)N1CCN(C(=O)c2cc(Cc3n[nH]c(=O)c4ccccc34)ccc2F)CC1 | 7.00 to 8.00
O=C(N[C@@H](C(=O)N1CCN(CC(=O)N2CCN(C(=O)c3cc(Cc4n[nH]c(=O)c5ccccc45)ccc3F)CC2)CC1)C1CCCCC1)c1cccc(C2CCCN(C(=O)C3CC3)C2)c1F (stereo partly drawn) | 7.00 to 8.00
O=C(N[C@@H](C(=O)N1CCN(CC2CCN(CC(=O)N3CCN(C(=O)c4cc(Cc5n[nH]c(=O)c6ccccc56)ccc4F)CC3)CC2)CC1)C1CCCCC1)c1cc(C2CCCN(C(=O)CNC3CC3)C2)ccc1F (stereo partly drawn) | 6.00 to 7.00
O=C(c1cc(Cc2n[nH]c(=O)c3ccccc23)ccc1F)N1CCN(C(=O)C2CC2)CC1 [Olaparib, reference compound] | 5.00 to 6.00
